# Study Target: D(3) dopamine receptor (Homo sapiens)
# Sequence (P35462 whole entry): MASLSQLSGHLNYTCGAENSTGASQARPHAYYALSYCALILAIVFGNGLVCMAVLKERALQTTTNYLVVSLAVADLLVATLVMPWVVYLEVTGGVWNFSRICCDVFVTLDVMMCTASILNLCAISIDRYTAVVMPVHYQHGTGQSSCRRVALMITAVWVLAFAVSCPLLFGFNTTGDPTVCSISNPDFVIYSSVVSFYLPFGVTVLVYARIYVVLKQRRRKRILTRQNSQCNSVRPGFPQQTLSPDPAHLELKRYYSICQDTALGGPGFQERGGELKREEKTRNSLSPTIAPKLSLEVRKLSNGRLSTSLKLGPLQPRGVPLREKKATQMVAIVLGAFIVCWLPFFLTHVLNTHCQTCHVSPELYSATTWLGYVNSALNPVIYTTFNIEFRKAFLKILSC
# Experiment Notes: Displacement of [3H]spiperone from human Dopamine receptor D3 expressed in CHO cells
# Format: cell-based
# Experimental Parameters: cho
Metric Name: Ki
Provide the measurement as a number trailed by its unit.

Exercise: Given c1ccc(C2=N[C@@H](CN3CCN(c4ccccc4)CC3)CS2)cc1 (stereo in doubt; 4f) , state its recorded Ki.
Key: 1200 nM

* * *

For each of the compounds below, state its pKi.
# Study Target: UniProtKB Q95136
# Sequence (Q95136 whole entry): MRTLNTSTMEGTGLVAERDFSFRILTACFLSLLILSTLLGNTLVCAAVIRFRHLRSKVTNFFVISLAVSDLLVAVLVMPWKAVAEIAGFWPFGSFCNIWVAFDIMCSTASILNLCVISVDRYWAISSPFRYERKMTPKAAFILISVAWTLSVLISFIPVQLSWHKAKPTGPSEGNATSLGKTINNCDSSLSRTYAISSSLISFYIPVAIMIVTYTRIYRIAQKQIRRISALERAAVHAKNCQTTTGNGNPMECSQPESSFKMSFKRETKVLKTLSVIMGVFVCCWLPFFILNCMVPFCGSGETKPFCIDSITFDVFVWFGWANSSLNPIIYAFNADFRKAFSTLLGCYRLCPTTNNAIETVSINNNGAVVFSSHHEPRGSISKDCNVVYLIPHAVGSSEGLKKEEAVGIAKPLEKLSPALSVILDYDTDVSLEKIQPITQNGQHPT
# Experiment Notes: In vitro for its ability to displace [3H]- SCH 23390 from Dopamine receptor D1 in bovine striatal membrane […]
In simple prose, pKi is minus the logarithm base ten of a concentration in moles per litre.

Exercise: Given C[C@@H]1OC(c2ccccc2)=N[C@H]1CN1CCN(c2ccccc2)CC1 (stereo in doubt; 4b) , state its recorded pKi.
Key: 4.70

Exercise: Given c1ccc(C2=N[C@@H](CN3CCN(c4ccccc4)CC3)CS2)cc1 (stereo in doubt; 4f) , state its recorded pKi.
Key: 4.80

Exercise: Given COc1ccc(Br)cc1C1=N[C@@H](CN2CCN(c3ccccc3)CC2)CO1 (stereo in doubt; 4c) , state its recorded pKi.
Key: 5.05

Exercise: Given COc1ccc(Br)cc1C1=N[C@@H](CN2CCN(c3ccccc3)CC2)[C@@H](C)O1 (stereo in doubt) , state its recorded pKi.
Key: 6.32

Exercise: Given COc1ccc(Br)cc1C1=N[C@@H](CN2CCN(c3ccccc3)CC2)CO1 (stereo in doubt) , state its recorded pKi.
Key: 5.70

Exercise: Given COc1ccc(Br)cc1C1=N[C@@H](CN2CCN(c3ccccc3)CC2)[C@@H](C)O1 (stereo in doubt; 4d) , state its recorded pKi.
Key: 5.46

Exercise: Given c1ccc(C2=N[C@@H](CN3CCN(c4ccccc4)CC3)CS2)cc1 (stereo in doubt) , state its recorded pKi.
Key: 5.35

Exercise: Given c1ccc(C2=N[C@@H](CN3CCN(c4ccccc4)CC3)CO2)cc1 (stereo in doubt; 4a) , state its recorded pKi.
Key: 5.01

* * *

# Study Target: D(2) dopamine receptor (Homo sapiens, UniProt P14416)
# Sequence (P14416 whole entry): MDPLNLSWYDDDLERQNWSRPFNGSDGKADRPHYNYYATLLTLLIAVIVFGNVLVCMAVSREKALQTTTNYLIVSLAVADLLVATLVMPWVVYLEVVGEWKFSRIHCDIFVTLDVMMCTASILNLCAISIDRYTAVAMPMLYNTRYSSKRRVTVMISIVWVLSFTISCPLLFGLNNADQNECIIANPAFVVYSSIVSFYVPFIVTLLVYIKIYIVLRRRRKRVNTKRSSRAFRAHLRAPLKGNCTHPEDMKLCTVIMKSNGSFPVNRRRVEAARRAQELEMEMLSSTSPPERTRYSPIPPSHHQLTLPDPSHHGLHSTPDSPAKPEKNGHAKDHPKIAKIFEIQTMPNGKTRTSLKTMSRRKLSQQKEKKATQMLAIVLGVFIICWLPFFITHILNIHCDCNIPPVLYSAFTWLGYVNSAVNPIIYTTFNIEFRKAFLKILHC
# Experiment Notes: In vitro for its ability to displace [3H]- spiperone from cloned human dopamine D2 long receptor expressed in CHO cells
# Type: cell-based
Metric Name: pKi
In simple prose, pKi is minus the logarithm base ten of a concentration in moles per litre.

Exercise: Given c1ccc(C2=N[C@@H](CN3CCN(c4ccccc4)CC3)CO2)cc1 (stereo in doubt) , state its recorded pKi.
Key: 6.16

Exercise: Given COc1ccc(Br)cc1C1=N[C@@H](CN2CCN(c3ccccc3)CC2)[C@@H](C)O1 (stereo in doubt) , state its recorded pKi.
Key: 4.68

Exercise: Given c1ccc(C2=N[C@@H](CN3CCN(c4ccccc4)CC3)CS2)cc1 (stereo in doubt) , state its recorded pKi.
Key: 5.96

Exercise: Given c1ccc(C2=NC[C@H](CN3CCN(c4ccccc4)CC3)N2)cc1 (stereo in doubt) , state its recorded pKi.
Key: 4.85

Exercise: Given COc1ccc(Br)cc1C1=N[C@@H](CN2CCN(c3ccccc3)CC2)CO1 (stereo in doubt; 4c) , state its recorded pKi.
Key: 5.66

Exercise: Given C[C@@H]1OC(c2ccccc2)=N[C@H]1CN1CCN(c2ccccc2)CC1 (stereo in doubt; 4b) , state its recorded pKi.
Key: 5.49

Exercise: Given C[C@@H]1OC(c2ccccc2)=N[C@H]1CN1CCN(c2ccccc2)CC1 (stereo in doubt) , state its recorded pKi.
Key: 6.09

Exercise: Given c1ccc(C2=N[C@@H](CN3CCN(c4ccccc4)CC3)CS2)cc1 (stereo in doubt; 4f) , state its recorded pKi.
Key: 5.82

* * *

For each of the molecules below, state its Ki.
# Study Target: UniProt P14416
# Experiment Notes: In vitro for its ability to displace [3H]- spiperone from cloned human dopamine D2 short receptor expressed in CHO cells
# Format: cell-based
The response must be a number in nM with no trailing unit.

Exercise: Given C[C@@H]1OC(c2ccccc2)=N[C@H]1CN1CCN(c2ccccc2)CC1 (stereo in doubt; 4b) , state its recorded Ki.
Key: 1900

Exercise: Given COc1ccc(Br)cc1C1=N[C@@H](CN2CCN(c3ccccc3)CC2)CO1 (stereo in doubt; 4c) , state its recorded Ki.
Key: 900

Exercise: Given c1ccc(C2=N[C@@H](CN3CCN(c4ccccc4)CC3)CO2)cc1 (stereo in doubt; 4a) , state its recorded Ki.
Key: 1100

Exercise: Given c1ccc(C2=NC[C@H](CN3CCN(c4ccccc4)CC3)N2)cc1 (stereo in doubt) , state its recorded Ki.
Key: 10000

* * *

# Study Target: D(3) dopamine receptor (Homo sapiens)
# Experiment Notes: Displacement of [3H]spiperone from human Dopamine receptor D3 expressed in CHO cells
# Assay type: cell-based
For each of the molecules below, state its log10 of Ki.
Answers are given as log10 of Ki in µM.

Exercise: Given c1ccc(C2=NC[C@H](CN3CCN(c4ccccc4)CC3)N2)cc1 (stereo in doubt) , state its recorded log10 of Ki.
Key: 0.95

Exercise: Given c1ccc(C2=N[C@@H](CN3CCN(c4ccccc4)CC3)CO2)cc1 (stereo in doubt; 4a) , state its recorded log10 of Ki.
Key: 0.52

Exercise: Given C[C@@H]1OC(c2ccccc2)=N[C@H]1CN1CCN(c2ccccc2)CC1 (stereo in doubt; 4b) , state its recorded log10 of Ki.
Key: 0.43

Exercise: Given C[C@@H]1OC(c2ccccc2)=N[C@H]1CN1CCN(c2ccccc2)CC1 (stereo in doubt) , state its recorded log10 of Ki.
Key: -0.15

Exercise: Given c1ccc(C2=N[C@@H](CN3CCN(c4ccccc4)CC3)CS2)cc1 (stereo in doubt) , state its recorded log10 of Ki.
Key: 0.08

Exercise: Given COc1ccc(Br)cc1C1=N[C@@H](CN2CCN(c3ccccc3)CC2)CO1 (stereo in doubt; 4c) , state its recorded log10 of Ki.
Key: 0.72

Exercise: Given COc1ccc(Br)cc1C1=N[C@@H](CN2CCN(c3ccccc3)CC2)[C@@H](C)O1 (stereo in doubt) , state its recorded log10 of Ki.
Key: 1.00

Exercise: Given COc1ccc(Br)cc1C1=N[C@@H](CN2CCN(c3ccccc3)CC2)CO1 (stereo in doubt) , state its recorded log10 of Ki.
Key: 0.00

Exercise: Given c1ccc(C2=NC[C@H](CN3CCN(c4ccccc4)CC3)N2)cc1 (stereo in doubt; 4e) , state its recorded log10 of Ki.
Key: 0.85

Exercise: Given COc1ccc(Br)cc1C1=N[C@@H](CN2CCN(c3ccccc3)CC2)[C@@H](C)O1 (stereo in doubt; 4d) , state its recorded log10 of Ki.
Key: 0.40

Exercise: Given c1ccc(C2=N[C@@H](CN3CCN(c4ccccc4)CC3)CO2)cc1 (stereo in doubt) , state its recorded log10 of Ki.
Key: -0.16

* * *

# Study Target: D(4) dopamine receptor (Homo sapiens, UniProt P21917)
# Sequence (P21917 whole entry): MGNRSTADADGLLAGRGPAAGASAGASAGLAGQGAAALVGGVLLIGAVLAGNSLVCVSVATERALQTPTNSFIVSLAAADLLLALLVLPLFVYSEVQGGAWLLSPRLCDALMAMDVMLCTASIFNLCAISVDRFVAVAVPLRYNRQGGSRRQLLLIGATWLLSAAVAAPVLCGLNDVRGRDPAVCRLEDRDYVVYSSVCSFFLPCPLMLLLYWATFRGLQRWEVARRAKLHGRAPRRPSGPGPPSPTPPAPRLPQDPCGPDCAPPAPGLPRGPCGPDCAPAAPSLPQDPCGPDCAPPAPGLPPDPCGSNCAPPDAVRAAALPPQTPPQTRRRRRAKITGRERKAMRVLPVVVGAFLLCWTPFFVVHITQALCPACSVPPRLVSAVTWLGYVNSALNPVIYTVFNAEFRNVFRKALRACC
For each of the compounds below, state its pKi.
In simple prose, pKi is minus the logarithm base ten of a concentration in moles per litre.

Exercise: Given c1ccc(C2=N[C@@H](CN3CCN(c4ccccc4)CC3)CS2)cc1 (stereo in doubt; 4f) , state its recorded pKi.
Key: 5.74

Exercise: Given c1ccc(C2=N[C@@H](CN3CCN(c4ccccc4)CC3)CS2)cc1 (stereo in doubt) , state its recorded pKi.
Key: 5.92

Exercise: Given COc1ccc(Br)cc1C1=N[C@@H](CN2CCN(c3ccccc3)CC2)CO1 (stereo in doubt) , state its recorded pKi.
Key: 6.41

Exercise: Given C[C@@H]1OC(c2ccccc2)=N[C@H]1CN1CCN(c2ccccc2)CC1 (stereo in doubt) , state its recorded pKi.
Key: 6.36

* * *

# Experiment Notes: In vitro for its ability to displace [3H]- ketanserin from 5-hydroxytryptamine 2 receptor in porcine brain homogenate
# Type: tissue-based
Metric Name: Ki (nM)
The response must be a number in nM with no trailing unit.

Exercise: Given c1ccc(C2=NC[C@H](CN3CCN(c4ccccc4)CC3)N2)cc1 (stereo in doubt; 4e) , state its recorded Ki.
Key: 870
